Biological target: FAP (Homo sapiens, UniProt Q12884)
Construct: the extracellular domain of FAP was cloned with a His-6 tag; made in house
Sequence (Q12884 26-760 limits assumed): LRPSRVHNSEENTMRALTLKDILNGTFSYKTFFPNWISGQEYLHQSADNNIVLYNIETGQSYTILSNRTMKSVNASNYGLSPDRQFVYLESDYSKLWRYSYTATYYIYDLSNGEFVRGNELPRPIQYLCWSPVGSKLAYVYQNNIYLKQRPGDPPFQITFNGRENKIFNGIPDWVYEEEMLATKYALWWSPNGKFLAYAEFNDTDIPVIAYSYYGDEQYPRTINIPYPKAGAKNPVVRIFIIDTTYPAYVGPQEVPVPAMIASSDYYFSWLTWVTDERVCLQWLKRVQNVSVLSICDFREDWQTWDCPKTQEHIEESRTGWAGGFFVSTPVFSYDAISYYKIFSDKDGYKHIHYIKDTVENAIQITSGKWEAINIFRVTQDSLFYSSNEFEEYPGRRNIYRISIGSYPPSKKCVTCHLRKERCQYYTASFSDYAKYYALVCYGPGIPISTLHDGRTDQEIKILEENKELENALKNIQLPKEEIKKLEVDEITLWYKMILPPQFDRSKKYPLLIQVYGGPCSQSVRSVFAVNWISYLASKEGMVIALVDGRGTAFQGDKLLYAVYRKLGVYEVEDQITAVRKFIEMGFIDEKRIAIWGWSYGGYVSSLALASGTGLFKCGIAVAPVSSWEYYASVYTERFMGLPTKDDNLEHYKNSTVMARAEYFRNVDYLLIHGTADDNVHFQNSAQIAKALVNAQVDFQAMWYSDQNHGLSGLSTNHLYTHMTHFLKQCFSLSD
Assay: LC-MS/MS cleavage map of FAP digest of 100 kDa recombinant human gelatin
Type: biochemical
Conditions: 100 kDa gelatin digest; share of all occurrences
readout kind: Percentage

Look over these answered cases.
substance: P.PGPAGAPGDKGESGP.S: FAP cleavage fragment, 100 kDa recombinant human gelatin
readout kind: Percentage
measurement: 0.95
//
substance: A.PGAPGAPGPVGPAGKSGDRGETGP.A: FAP cleavage fragment, 100 kDa recombinant human gelatin
readout kind: Percentage
measurement: 1.90
//
substance: E.PGKQGPSGASGERGPPGP.M: FAP cleavage fragment, 100 kDa recombinant human gelatin
readout kind: Percentage
measurement: 2.38
//
substance: P.QGFQGPPGEPGEPGASGP.M: FAP cleavage fragment, 100 kDa recombinant human gelatin
readout kind: Percentage
measurement: 0.95
//
substance: P.AGPPGEAGKPGEQGVPGDLGAPGP.S: FAP cleavage fragment, 100 kDa recombinant human gelatin
readout kind: Percentage
measurement: 2.86
//
substance: G.PPGADGQPGAKGEPGDAGAKGDAGPPGP.A: FAP cleavage fragment, 100 kDa recombinant human gelatin
readout kind: Percentage
measurement: 0.95

(1) P.AGPTGARGAPGDRGEPGPPGP.A: FAP cleavage fragment, 100 kDa recombinant human gelatin
(2) P.SGNAGPPGPPGP.A: FAP cleavage fragment, 100 kDa recombinant human gelatin
(3) G.PPGPAGAPGDK.G: FAP cleavage fragment, 100 kDa recombinant human gelatin
## Input Put the items in order so that reported Percentage rises from first to last. Order the labels as requested and list them.
## Output 3, 1, 2

(P) P.AGPPGAPGAPGAPGP.V: FAP cleavage fragment, 100 kDa recombinant human gelatin
(Q) P.PGLAGPPGESGREGAPGAEGSPGRD.G: FAP cleavage fragment, 100 kDa recombinant human gelatin
## Input // pick min by Percentage: P , Q When you have decided, please share the label of that item.
## Output Q
